Value source: ChEMBL document CHEMBL3352357

Catalogue of inhibition values
- targetSystem: Delta-type opioid receptor (Homo sapiens, UniProt P41143)
- Sequence (P41143 whole entry): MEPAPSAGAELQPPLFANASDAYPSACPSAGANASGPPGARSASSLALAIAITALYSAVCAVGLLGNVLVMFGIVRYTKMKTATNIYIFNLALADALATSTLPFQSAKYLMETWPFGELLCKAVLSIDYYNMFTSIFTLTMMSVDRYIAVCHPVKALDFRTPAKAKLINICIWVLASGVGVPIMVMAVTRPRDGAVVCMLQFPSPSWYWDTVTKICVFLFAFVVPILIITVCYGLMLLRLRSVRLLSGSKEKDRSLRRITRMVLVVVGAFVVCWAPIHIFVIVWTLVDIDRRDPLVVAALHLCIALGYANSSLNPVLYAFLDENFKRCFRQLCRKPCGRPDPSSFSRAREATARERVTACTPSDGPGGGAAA
- method: Displacement of [3H]-deltorphine from human delta opioid receptor expressed in CHO-K1 cells at 10 uM by scintillation counting analysis
- Type: cell-based

compound: O=C(Cc1ccc(Cl)c(Cl)c1)N1CCN(Cc2ccccc2)C2CCCC(N3CCC(O)C3)C21 (racemic)
displayUnit: %
inhibition: 22
--
compound: COC(=O)CC(=O)N1CCN(C(=O)Cc2ccc(Cl)c(Cl)c2)C2C(N3CCC(O)C3)CCCC21 (racemic)
displayUnit: %
inhibition: 28
--
compound: CCCCN1CCN(C(=O)Cc2ccc(Cl)c(Cl)c2)C2C(N3CCCC3)CCCC21 (racemic)
displayUnit: %
inhibition: 32
--
compound: COc1ccc(CN2CCN(C(=O)Cc3ccc(Cl)c(Cl)c3)C3C(N4CCCC4)CCCC32)cc1 (racemic)
displayUnit: %
inhibition: 26
--
compound: O=C(O)CC(=O)N1CCN(C(=O)Cc2ccc(Cl)c(Cl)c2)C2C(N3CCC(O)C3)CCCC21 (mixture of isomers)
displayUnit: %
inhibition: 10
--
compound: O=C(Cc1ccc(Cl)c(Cl)c1)N1CCN(Cc2cnc[nH]2)C2CCCC(N3CCC(O)C3)C21 (racemic)
displayUnit: %
inhibition: 11
--
compound: COC(=O)N1CCN(C(=O)Cc2ccc(Cl)c(Cl)c2)C2C(N3CCC(O)C3)CCCC21 (racemic)
displayUnit: %
inhibition: 16
--
compound: COC(=O)CC(=O)N1CCN(C(=O)Cc2ccc(Cl)c(Cl)c2)C2C(N3CCCC3)CCCC21 (racemic)
displayUnit: %
inhibition: 0
